Kindly supply the reported CI at ED90 values for the records listed here.
system: L5178YMDR cells; test: Combination assay with doxorubicin (checkerboard microplate method, MTT); assay type: cell-based, mouse; conditions: drug ratio 185.6:1, with doxorubicin
One number for each entry.

Known CI at ED90 results, listed for orientation:
* CC(=O)N[C@H]1CC[C@@]2(F)C3=CC(=O)[C@@H]4C[C@H]5OC(C)(C)O[C@H]5C[C@]4(C)[C@H]3CC[C@]12C [Compound 14] | 1.24
* CC(=O)N[C@H]1CC=C2C3=CC(=O)[C@@H]4C[C@H]5OC(C)(C)O[C@H]5C[C@]4(C)[C@H]3CC[C@@]21C [Compound 13] | 0.65
* CC(=O)[C@H]1CC=C2C3=CC(=O)[C@@H]4C[C@H]5OC(C)(C)O[C@H]5C[C@]4(C)[C@H]3CC[C@@]21C [Compound 10] | 0.36

Consider the compound CC(=O)[C@H]1CC[C@@]2(F)C3=CC(=O)[C@@H]4C[C@H]5OC(C)(C)O[C@H]5C[C@]4(C)[C@H]3CC[C@]12C [Compound 11] and give its measured CI at ED90. 0.48
